- experimental protocol: Solubility of amines and amine mixtures in acrylate resins
- Format: physicochemical
- assay conditions: in HDDA (1,6-hexanediol diacrylate); stays in solution at least 7 days; above 10% w/w not tested
property: Solubility (% w/w at ~15-20° C.)

>>> df
                                   molecule  measured_result
0  CCC(COC(=O)c1ccc(N(C)C)cc1)(COC(=O)c1ccc(N(C)C)cc1)COC(=O)c1ccc(N(C)C)cc1 [AC3]         <2 % w/w

Solubility (% w/w at ~15-20° C.) reported for this molecule CN(C)c1ccc(C(=O)OCC(COC(=O)c2ccc(N(C)C)cc2)OC(=O)c2ccc(N(C)C)cc2)cc1 [AC5] : <1 % w/w

For this molecule ( CN(C)c1ccc(C(=O)OCC(COC(=O)c2ccc(N(C)C)cc2)(COC(=O)c2ccc(N(C)C)cc2)COC(=O)c2ccc(N(C)C)cc2)cc1 [AC4] ), measured Solubility (% w/w at ~15-20° C.) is <1 % w/w
